MEASURED TARGET: Microphthalmia-associated transcription factor (Homo sapiens) (UniProt O75030)
Sequence (O75030 whole entry, looked up): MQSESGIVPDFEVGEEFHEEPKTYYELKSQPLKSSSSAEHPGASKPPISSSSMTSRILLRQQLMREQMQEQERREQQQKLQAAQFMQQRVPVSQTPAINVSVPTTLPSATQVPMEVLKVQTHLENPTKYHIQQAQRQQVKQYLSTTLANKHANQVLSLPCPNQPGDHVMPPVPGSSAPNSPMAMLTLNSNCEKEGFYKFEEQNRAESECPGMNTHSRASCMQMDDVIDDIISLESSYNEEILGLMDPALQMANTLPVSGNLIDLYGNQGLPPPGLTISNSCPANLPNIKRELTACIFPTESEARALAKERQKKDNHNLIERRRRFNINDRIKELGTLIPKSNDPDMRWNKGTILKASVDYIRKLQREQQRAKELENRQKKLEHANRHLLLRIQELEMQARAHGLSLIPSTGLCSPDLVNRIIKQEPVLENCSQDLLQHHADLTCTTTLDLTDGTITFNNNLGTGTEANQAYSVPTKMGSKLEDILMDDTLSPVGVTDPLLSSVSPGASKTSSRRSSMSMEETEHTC
METHOD NOTES: MITF inhibitors, potency by titration, dose response, biochemical, AlphaScreen, human (AID 1259371)
CONDITIONS USED: AlphaScreen biochemical MITF assay, signal inhibition
Active and inactive are the calls of the source. No rule for the calls is given here.

MOLECULE | IC50
C/C(=N\Nc1ccc(S(=O)(=O)O)cc1)c1ccc([N+](=O)[O-])o1 | > 2160 nM (inactive)
O=C(Nc1ccc(N2CCOCC2)cc1)c1ccnc(Nc2ncccn2)c1 | inactive
O=C(O)c1cc(N/N=C/c2ccc(N3CCOCC3)s2)ccc1Cl | 116 nM
CCOC(=O)c1cc(N2C(=O)C3C4C=CC(C4)C3C2=O)ccc1Cl (stereo not given) | inactive
O=S(=O)(N=S(=O)(/C=C/c1ccccc1)c1ccccc1)c1ccccc1 (stereo not given) | > 5360 nM (inactive)

====

MEASURED TARGET: Microphthalmia-associated transcription factor (Homo sapiens) (UniProt O75030)
METHOD NOTES: MITF inhibitors, potency by titration, dose response, biochemical, AlphaScreen, human (AID 1259371)
CONDITIONS USED: AlphaScreen biochemical MITF assay, signal inhibition
Calls of active or inactive are those of the source. How the calls were made is not given here.
Classes used: 1 (yes) for active, 0 (no) for inactive

COMPOUND | MEASURED TARGET | GROUP
C=CCNCCOCCOc1ccc(OCC)cc1 | Microphthalmia-associated transcription factor (Homo sapiens) (UniProt O75030) | 0 (no)
CC(O)C(=O)N/N=C/C=C/c1ccc([N+](=O)[O-])o1 (stereo unspecified) | Microphthalmia-associated transcription factor (Homo sapiens) (UniProt O75030) | 0 (no)
O=C(OC1CCOC1=O)c1cc(-c2ccco2)nc2ccccc12 (stereo unspecified) | Microphthalmia-associated transcription factor (Homo sapiens) (UniProt O75030) | 1 (yes)
O=[N+]([O-])c1cc(C=Nc2ccc(N3CCOCC3)cc2)c(O)c([N+](=O)[O-])c1 | Microphthalmia-associated transcription factor (Homo sapiens) (UniProt O75030) | 1 (yes)
O=C(Cc1cccs1)N/N=C\C=C\c1ccco1 | Microphthalmia-associated transcription factor (Homo sapiens) (UniProt O75030) | 1 (yes)
CCc1ccc(NC(=O)CS(=O)CC(=O)NCCCc2ccccc2)cc1 (stereo unspecified) | Microphthalmia-associated transcription factor (Homo sapiens) (UniProt O75030) | 0 (no)
O=C(c1cccc(F)c1)N1CCN(Cc2ccncc2)CC1 | Microphthalmia-associated transcription factor (Homo sapiens) (UniProt O75030) | 0 (no)
O=C1N[C@H](Cc2ccc(O)cc2)C(=O)N2CCN(C(=O)NC3CCCCC3)C[C@H]12 | Microphthalmia-associated transcription factor (Homo sapiens) (UniProt O75030) | 0 (no)
COc1nccnc1NS(=O)(=O)c1ccc(NC(=O)c2ccc([N+](=O)[O-])c(C)c2)cc1 | Microphthalmia-associated transcription factor (Homo sapiens) (UniProt O75030) | 0 (no)
Cc1ccc([N+](=O)[O-])cc1S(=O)(=O)Nc1ccc(Nc2ncccc2[N+](=O)[O-])cc1 | Microphthalmia-associated transcription factor (Homo sapiens) (UniProt O75030) | 1 (yes)
Cc1c(NC(=O)C(C)OC(=O)c2cc3c(s2)CCC3)c(=O)n(-c2ccccc2)n1C (stereo unspecified) | Microphthalmia-associated transcription factor (Homo sapiens) (UniProt O75030) | 1 (yes)
c1ccc(COc2ccc(OCCCCn3ccnc3)cc2)cc1 | Microphthalmia-associated transcription factor (Homo sapiens) (UniProt O75030) | 0 (no)
O=C(O)c1cc(-c2ccco2)nc2ccccc12 | Microphthalmia-associated transcription factor (Homo sapiens) (UniProt O75030) | 0 (no)
CN(C)CCNc1nc(C2COc3ccccc3O2)nc2ccc(-c3cn[nH]c3)cc12 (stereo unspecified) | Microphthalmia-associated transcription factor (Homo sapiens) (UniProt O75030) | 0 (no)
N#C/C(=C\c1nn(-c2ccccc2)c(N)c1C#N)c1ccco1 | Microphthalmia-associated transcription factor (Homo sapiens) (UniProt O75030) | 1 (yes)
Cc1cc(C)nc(NS(=O)(=O)c2ccc(N3C(=O)C=CC3=O)cc2)n1 | Microphthalmia-associated transcription factor (Homo sapiens) (UniProt O75030) | 0 (no)
CCc1ccc(CN2CCN(C(C)C)CC2)cc1 | Microphthalmia-associated transcription factor (Homo sapiens) (UniProt O75030) | 0 (no)
NC(=O)Cn1cnc2sc3c(c2c1=O)CCC3 | Microphthalmia-associated transcription factor (Homo sapiens) (UniProt O75030) | 0 (no)
COc1ccc2c(c1)CC(C(=O)Nc1ccc(-c3cn[nH]c3)cc1OCC(N)=O)CO2 (stereo unspecified) | Microphthalmia-associated transcription factor (Homo sapiens) (UniProt O75030) | 0 (no)
NS(=O)(=O)c1ccc(N=Cc2cc3c(cc2[N+](=O)[O-])OCO3)cc1 | Microphthalmia-associated transcription factor (Homo sapiens) (UniProt O75030) | 0 (no)
N[C@@H](C(=O)N[C@@H]1C(=O)N2C(C(=O)O)=C(CSC3CNNN3)CS[C@H]12)c1ccc(O)cc1 (stereo partly specified) (tested in a mixture with another compound) | Microphthalmia-associated transcription factor (Homo sapiens) (UniProt O75030) | 1 (yes)

Data origin: PubChem BioAssay AID1259371
